This collection of values is drawn from patent US20030068675.

- MEASUREMENT TARGET: ZFP SBS#1397 (synthetic)
- Sequence (chain, as listed by the source): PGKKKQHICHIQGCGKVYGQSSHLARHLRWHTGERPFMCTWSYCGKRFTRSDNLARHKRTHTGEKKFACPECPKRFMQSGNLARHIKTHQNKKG
- ASSAY REMARKS: EMSA
- STUDY CONDITIONS: tags: MBP fusion
MEASUREMENT KIND: Kd (nM)
Unit nM implied. Number only.

response.value for GAAGAGGGA (dsDNA) DNA 1: GAAGAGGGA DNA 2: TCCCTCTTC (field: Kd) = 0.14
